Recorded values, source ChEMBL document CHEMBL4513216.

- experiment.summary: Toxicity liver stage against HepG2, at 10uM
- Assay type: cell-based
- Parameters: test concentration 10 uM, cell line HepG2-A16-CD81EGFP
- measurement.context: human, HepG2-A16-CD81EGFP cells; read-out: INHIBITION
We begin with a simple list: items and their reported cytotoxicity at 10 µM.
Could you give me the number in %? Just the number is fine.

(Q) Indicate its recorded cytotoxicity at 10 µM; the compound in question is COc1ccccc1C(=O)C1CCCN(c2cc(C#N)ccn2)C1 (configuration not stated)
(A) 7.56

(Q) Give cytotoxicity at 10 µM for the following compound: "CN1CCC(N(CCc2ccccc2)C(=O)c2ccc(CO)cc2)CC1"
(A) 1.63

(Q) Please look at this compound and report its cytotoxicity at 10 µM: Cn1cc(CN2CCC(F)(F)C3(CCN(c4ncc(F)cn4)C3)C2)cn1 (configuration not stated)
(A) 1.2

(Q) Output measured cytotoxicity at 10 µM for this item: "CNC(=O)CN1CCC(CN(C)Cc2ccccc2N(C)C)CC1"
(A) -6.23

(Q) Let me know recorded cytotoxicity at 10 µM for "Cc1cc(CN2CCN(C(=O)NCCCc3cn[nH]c3C)CC2)on1" , thanks.
(A) -13.2

###

Item-by-item account of cytotoxicity at 10 µM
- experiment.summary: Toxicity liver stage against HepG2, at 10uM
- Format: cell-based
- Set-up: test concentration 10 uM, cell line HepG2-A16-CD81EGFP
- measurement.context: human, HepG2-A16-CD81EGFP cells; read-out: INHIBITION
Numbers only here, please. The scale is %.

# count of solved cases: 3
(Q) Input "CCCN(C(=O)COCC)c1cccc(C)c1" , output reported cytotoxicity at 10 µM.
(A) 0.727

(Q) Find the measured cytotoxicity at 10 µM of "CCc1nc(CN2CCCN(C(=O)CCc3ccco3)CC2)cs1" and report it.
(A) 1.42

(Q) # return recorded cytotoxicity at 10 µM for entry Cc1cc(CNC(C)Cn2cncn2)ccc1Br (centres undefined)
(A) 2.33

Others:
(Q) Fill in cytotoxicity at 10 µM for record CC(c1cccnc1)N1CCN(C(=O)NCc2cnn(C)c2)CC1 (centres undefined)
(A) -2.38

(Q) Look up cytotoxicity at 10 µM of CNC(=O)C1(C)CN(c2nnc(C)c3ccccc23)CCO1 (centres undefined) and report it.
(A) -1.61

(Q) Find the measured cytotoxicity at 10 µM of "Cc1nc2cc(=O)[nH]n2c(C)c1CNC(=O)C(C)(C)c1ccccc1" and report it.
(A) 1.1

(Q) State its cytotoxicity at 10 µM for this compound: CCCN1CC2(CCN(C)CC2)CC1C(=O)NCCn1ccc(C)n1 (centres undefined)
(A) -5.64

###

As shown below, each of these molecules has a reported cytotoxicity at 10 µM value.
- experiment.summary: Toxicity liver stage against HepG2, at 10uM
- Assay type: cell-based
- Design: test concentration 10 uM, cell line HepG2-A16-CD81EGFP
- measurement.context: human, HepG2-A16-CD81EGFP cells; read-out: INHIBITION
Your answer should be a plain number; it is taken to be in %.

Below: 10 molecules and their reported cytotoxicity at 10 µM.
(Q) Using known records, supply cytotoxicity at 10 µM for "O=C(O)c1cc(S(=O)(=O)Nc2cc(Cl)ccc2F)cc2c1OCCO2"
(A) -18.7

(Q) Give reported cytotoxicity at 10 µM value for "CC(C)n1ccnc1CN1CCCN(C(=O)c2nccnc2N)CC1"
(A) -7.26

(Q) Give reported cytotoxicity at 10 µM value for "COc1ccccc1-c1ccccc1CC1(C(=O)O)CCNCC1"
(A) -0.782

(Q) Supply measured cytotoxicity at 10 µM of Cc1ccc(C(C(=O)N(C)CCc2cn[nH]c2)N(C)C)cc1 (stereo not given) in your reply.
(A) 0.0341

(Q) Give the value of cytotoxicity at 10 µM reported for the following: COc1cccc(NC(=O)C2CC(=O)n3cnnc3S2)c1 (stereo not given)
(A) 2.27

(Q) Indicate the recorded cytotoxicity at 10 µM value for this molecule: COc1ccc(C2(C(=O)NC3CCc4nccn4C3)CCCC2)cc1 (stereo not given)
(A) 4.48

(Q) Quickly give me recorded cytotoxicity at 10 µM for COc1cccc(CNCc2nnc3n2CC(C(F)(F)F)CC3)c1 (stereo not given)
(A) 14

(Q) Give recorded cytotoxicity at 10 µM. CC(C)CN1CCC(c2nc3c([nH]2)CC(C)(C)CNC3=O)C1 (stereo not given)
(A) -10.6

(Q) // Input: "NC(=O)CSc1ccccc1NC(=O)C1CCCCC1" . Output its cytotoxicity at 10 µM only.
(A) -127

(Q) Assign cytotoxicity at 10 µM to the following record: O=C(NCCCn1nc2ccccn2c1=O)NC1CCC(O)CC1 (stereo not given)
(A) -12.8

***
(Q) Entry "CN(Cc1ccccc1Cl)C(=O)c1cc(CN2CCC(O)CC2)on1" needs its cytotoxicity at 10 µM filled in; supply it.
(A) 0.0227

###

- experiment.summary: Toxicity liver stage against HepG2, at 10uM
- Type: cell-based
- Set-up: test concentration 10 uM, cell line HepG2-A16-CD81EGFP
- measurement.context: human, HepG2-A16-CD81EGFP cells; read-out: INHIBITION
measurement.type: cytotoxicity at 10 µM (%)
Give your result in % as a bare value.

(Q) Specify measured cytotoxicity at 10 µM for "O=c1n(CCSCc2ccccc2F)nc2ccccn12" .
(A) 0.168

(Q) Hello, please tell me recorded cytotoxicity at 10 µM for this one: "CC(C)(C)c1cc(=O)[nH]c(-c2ccccc2CN2CCC[C@@H](O)C2)n1"
(A) -43.3

###

Measured cytotoxicity at 10 µM values are reported for all entries that follow.
- experiment.summary: Toxicity liver stage against HepG2, at 10uM
- Format: cell-based
- Set-up: test concentration 10 uM, cell line HepG2-A16-CD81EGFP
- measurement.context: human, HepG2-A16-CD81EGFP cells; read-out: INHIBITION
I only need the number, in %, no unit after it.

Worked examples follow.
(Q) Supply reported cytotoxicity at 10 µM belonging to this compound: "COc1cccc(CN2CC[C@H](c3nnc(-c4ccco4)o3)C2)c1"
(A) -1.34

(Q) Answer with the recorded cytotoxicity at 10 µM for the compound listed here: "Cc1cc(-c2cnc(N3CCC(O)CC3)nc2C(C)C)on1"
(A) 66.4

(Q) Specify reported cytotoxicity at 10 µM for the compound shown: Cc1ccc(CN2Cc3ccccc3OC3(CCC(CO)CC3)C2)s1 (stereo unspecified)
(A) -3.11

(Q) Answer with the recorded cytotoxicity at 10 µM for the compound listed here: "CNC(=O)c1nc2c(s1)CCN(C(=O)c1ccc(OC)cc1)CC2"
(A) 0.428

Continuing:
(Q) Tell me cytotoxicity at 10 µM reported for C=C(C)CN1CCCC1c1nc(Cc2ccc(F)cc2)no1 (stereo unspecified)
(A) -4.9

(Q) Entry CCN1Cc2cc(F)ccc2N(CC(O)C(F)(F)F)CCC1=O (stereo unspecified) needs its cytotoxicity at 10 µM filled in; supply it.
(A) -3.4

###

- experiment.summary: Toxicity liver stage against HepG2, at 10uM
- Type: cell-based
- Design: test concentration 10 uM, cell line HepG2-A16-CD81EGFP
- measurement.context: human, HepG2-A16-CD81EGFP cells; read-out: INHIBITION
measurement.type: cytotoxicity at 10 µM (%)
Write the value in % as a bare number.

Answered examples (4):
(Q) // Input: "COc1ccc(CCN2C(=O)O[C@@H]3CN(C)C[C@@H]32)cc1" . Output its cytotoxicity at 10 µM only.
(A) -2

(Q) Name the recorded cytotoxicity at 10 µM of the compound listed here: "CCc1cc(C(=O)N2CC[C@@H](c3ccc4ccccc4c3)[C@H](O)C2)[nH]n1"
(A) 3.46

(Q) For the compound c1cnn(CC2CN(c3ncnc4ccsc34)CCO2)c1 (stereo unspecified) , give its measured cytotoxicity at 10 µM value.
(A) 38.7

(Q) Annotate the compound "CN(C)c1nc2n(c(=O)n1)CCN2C(=O)Nc1cccc(Cl)c1" with its measured cytotoxicity at 10 µM.
(A) 8.19

Next:
(Q) State, in one line, measured cytotoxicity at 10 µM of "Cc1ccc(CN(C)C(=O)c2cc3c(c(S(N)(=O)=O)c2)CCC3)o1"
(A) -52.5

(Q) Name the recorded cytotoxicity at 10 µM of the item COCC1c2c(cnn2CC2CC2)CCN1Cc1cc(C)on1 (stereo unspecified) in your answer.
(A) 5.5

(Q) Please look at this compound and report its cytotoxicity at 10 µM: "COc1ccc2c(ccn2CCC(=O)NCCCC(=O)O)c1"
(A) 5.7

(Q) Return cytotoxicity at 10 µM (reported value) for this compound: "COc1nc(C)c(C(=O)N(C)Cc2nc(-c3ccccn3)no2)s1"
(A) -8.44

(Q) Quickly give me recorded cytotoxicity at 10 µM for O=C(NCc1nc(C2CC2)no1)N1CCOC(c2ccccc2)C1 (stereo unspecified)
(A) -45.2

(Q) Look up cytotoxicity at 10 µM of COc1c(C)cnc(CN2CCCC(Cn3nc(C)nc3C)C2)c1C (stereo unspecified) and report it.
(A) 2.37

(Q) Quickly give me recorded cytotoxicity at 10 µM for "O=C(CCn1ccc2ccc(Cl)cc21)NCc1ccc(C(=O)O)cc1"
(A) -0.411
